Provenance of the data: patent US4118561A

Tested on: S. paratyphi 11737
quantity: MIC (µg/mL)
// note: answer is a bare numeric in µg/mL

Field: example entries. Status: answers known.
{"molecular string": "COc1cc(Cn2ccc3c4c(N)nc(N)nc4ccc32)cc(OC)c1", "readout units": "µg/mL", "MIC": 1.95}
{"molecular string": "Nc1nc(N)c2c(ccc3c2ccn3Cc2ccccn2)n1", "readout units": "µg/mL", "MIC": 0.244}
{"molecular string": "Nc1nc(N)c2c(ccc3c2ccn3Cc2cccc([N+](=O)[O-])c2)n1", "readout units": "µg/mL", "MIC": 0.976}
{"molecular string": "Nc1nc(N)c2c(ccc3c2ccn3CC2CCCCC2)n1", "readout units": "µg/mL", "MIC": 7.81}
{"molecular string": "COc1ccc(OC)c(Cn2ccc3c4c(N)nc(N)nc4ccc32)c1", "readout units": "µg/mL", "MIC": 3.9}

Task: Please indicate recorded MIC of Nc1nc(N)c2c(ccc3c2cc(Cl)n3Cc2ccccc2)n1 measured with S. paratyphi 11737.
Output: 7.81
